FYI, the data here is from patent EP2914280B1.

# study system: hDRD2 (Homo sapiens);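 further: agonist activity at human DRD2 in DRD2-expressing cells, read as intracellular calcium mobilization with a FLIPR Calcium 4 fluorescent dye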
# Sequence (P14416 whole entry): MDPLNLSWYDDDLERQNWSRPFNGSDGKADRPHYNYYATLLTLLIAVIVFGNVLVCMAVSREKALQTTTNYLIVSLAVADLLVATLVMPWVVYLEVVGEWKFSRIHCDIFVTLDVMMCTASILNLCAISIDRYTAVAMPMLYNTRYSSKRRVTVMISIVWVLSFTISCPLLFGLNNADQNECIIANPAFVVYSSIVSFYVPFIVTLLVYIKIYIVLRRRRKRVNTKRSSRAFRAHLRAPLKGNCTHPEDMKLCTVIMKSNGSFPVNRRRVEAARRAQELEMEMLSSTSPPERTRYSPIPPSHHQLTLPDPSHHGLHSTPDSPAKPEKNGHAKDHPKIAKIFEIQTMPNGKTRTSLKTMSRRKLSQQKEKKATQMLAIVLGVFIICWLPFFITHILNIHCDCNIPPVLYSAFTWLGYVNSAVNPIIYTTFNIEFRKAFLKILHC
# measurement description: cell-based
pEC50: −log10 of the molar value. Numbered stars: 1 amine (or outer) side, 2 acyl side, 3 side chain; on linkers, the order of the positions; unused ones are H or OH. Bridge positions count the residues as written; N and C are the ends. Square brackets hold non-standard residues; d marks the D form. Peptide text beside a SMILES is read from it. X1 = CN1C[C@H](CSCCN(CCSC[C@@H]2C[C@@H]3c4cccc5[nH]cc(c45)C[C@H]3N(C)C2)[C@H](CCCCN[*:2])C(=O)[*:1])C[C@@H]2c3cccc4[nH]cc(c34)C[C@H]21; Phe(4-F) = N[C@@H](Cc1ccc(F)cc1)C(=O)O; 4Pal = N[C@@H](Cc1ccncc1)C(=O)O
# pEC50 annotations
readout: pEC50

INSERT INTO assay_data (molecule, meas_value) VALUES
  ('C[C@@H](O)[C@@H]1NC(=O)[C@H](CCCCN)NC(=O)[C@@H](Cc2c[nH]c3ccccc23)NC(=O)[C@H](Cc2ccccc2)NC(=O)[C@H](Cc2ccccc2)NC(=O)[C@H](CCCNC(=N)N)NC(=O)[C@H](N(CCSC[C@@H]2C[C@@H]3c4cccc5[nH]cc(c45)C[C@H]3N(C)C2)CCSC[C@@H]2C[C@@H]3c4cccc5[nH]cc(c45)C[C@H]3N(C)C2)CCCCNC(=O)[C@H](Cc2ccccc2)NC1=O [Compound 40] (RFF[dW]KTF; linker N-C via X1)', 6.91),
  ('C[C@@H](O)[C@@H]1NC(=O)[C@H](CCCCN)NC(=O)[C@@H](Cc2c[nH]c3ccccc23)NC(=O)[C@H](Cc2ccccc2)NC(=O)[C@H](Cc2ccccc2)NC(=O)[C@H](CCCNC(=N)N)NC(=O)[C@H](NC[C@H](Cc2ccc(O)cc2)NC(=O)C[S+]([O-])C[C@@H]2C[C@@H]3c4cccc5[nH]cc(c45)C[C@H]3N(C)C2)CCCCNC(=O)[C@H](Cc2ccc(F)cc2)NC1=O (some centres unmarked) [Compound 13]', 8.04),
  ('C[C@@H](O)[C@@H]1NC(=O)[C@H](CCCCN)NC(=O)[C@@H](Cc2c[nH]c3ccccc23)NC(=O)[C@H](Cc2ccncc2)NC(=O)[C@H](Cc2ccccc2)NC(=O)[C@H](CCCNC(=N)N)NC(=O)[C@H](N(CCSC[C@@H]2C[C@@H]3c4cccc5[nH]cc(c45)C[C@H]3N(C)C2)CCSC[C@@H]2C[C@@H]3c4cccc5[nH]cc(c45)C[C@H]3N(C)C2)CCCCNC(=O)[C@H](Cc2ccccc2)NC1=O [Compound 29] (RF[4Pal][dW]KTF; linker N-C via X1)', 6.59),
  ('C[C@@H](O)[C@@H]1NC(=O)[C@H](CCCCN)NC(=O)[C@@H](Cc2c[nH]c3ccccc23)NC(=O)[C@H](Cc2ccccc2)NC(=O)[C@H](Cc2ccccc2)NC(=O)[C@H](CCCNC(=N)N)NC(=O)[C@H](N(CCSC[C@@H]2C[C@@H]3c4cccc5[nH]cc(c45)C[C@H]3N(C)C2)CCSC[C@@H]2C[C@@H]3c4cccc5[nH]cc(c45)C[C@H]3N(C)C2)CCCCNC(=O)[C@H](Cc2ccc(F)cc2)NC1=O [Compound 39] (RFF[dW]KT[Phe(4-F)]; linker N-C via X1)', 6.94),
  ('C[C@@H](O)[C@@H]1NC(=O)[C@H](CCCCN)NC(=O)[C@@H](Cc2c[nH]c3ccccc23)NC(=O)[C@H](Cc2ccccc2)NC(=O)[C@H](Cc2ccccc2)NC(=O)[C@H](CCCNC(=N)N)NC(=O)[C@H](NC[C@H](Cc2ccc(O)cc2)NC(=O)CS(=O)(=O)C[C@@H]2C[C@@H]3c4cccc5[nH]cc(c45)C[C@H]3N(C)C2)CCCCNC(=O)[C@H](Cc2ccc(F)cc2)NC1=O [Compound 19]', 6.15);

====

# study system: hSSTR2 (Homo sapiens, UniProt P30874)
# Construct: host or cells: 'Cells expressing hSSTR2'
# Sequence (P30874 whole entry): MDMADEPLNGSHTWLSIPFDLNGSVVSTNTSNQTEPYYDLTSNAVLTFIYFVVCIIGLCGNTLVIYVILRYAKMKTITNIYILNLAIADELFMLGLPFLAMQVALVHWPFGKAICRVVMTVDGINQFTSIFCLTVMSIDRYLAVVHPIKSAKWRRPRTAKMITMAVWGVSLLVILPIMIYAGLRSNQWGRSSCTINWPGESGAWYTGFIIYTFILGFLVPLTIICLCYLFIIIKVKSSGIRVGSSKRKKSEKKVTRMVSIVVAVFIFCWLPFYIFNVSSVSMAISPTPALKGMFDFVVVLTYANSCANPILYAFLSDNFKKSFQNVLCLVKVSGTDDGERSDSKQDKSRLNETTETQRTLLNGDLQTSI
# measurement description: Somatostatin receptor radioligand binding assay (hSSTR2);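 further: radioligand displacement on membranes of CHO-K1 cells stably transfected with human SSTR2, specific binding taken as total minus binding left with 1000 nM SRIF-14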
pKi: −log10 of the molar value. Numbered stars: 1 amine (or outer) side, 2 acyl side, 3 side chain; on linkers, the order of the positions; unused ones are H or OH. Bridge positions count the residues as written; N and C are the ends. Square brackets hold non-standard residues; d marks the D form. Peptide text beside a SMILES is read from it. * marks the point of attachment. X1 = CN1C[C@H](CSCCN(CCSC[C@@H]2C[C@@H]3c4cccc5[nH]cc(c45)C[C@H]3N(C)C2)[C@H](CCCCN[*:2])C(=O)[*:1])C[C@@H]2c3cccc4[nH]cc(c34)C[C@H]21; X2 = CN1C[C@H](CSCC(=O)*)C[C@@H]2c3cccc4[nH]cc(c34)C[C@H]21; Phe(4-F) = N[C@@H](Cc1ccc(F)cc1)C(=O)O; 4Pal = N[C@@H](Cc1ccncc1)C(=O)O
readout: pKi

INSERT INTO assay_data (compound, meas_value) VALUES
  ('C[C@@H](O)[C@@H]1NC(=O)[C@H](CCCCN)NC(=O)[C@@H](Cc2c[nH]c3ccccc23)NC(=O)[C@H](Cc2ccncc2)NC(=O)[C@H](Cc2ccccc2)NC(=O)[C@H](CCCNC(=N)N)NC(=O)[C@H](NCC[S@@+]([O-])C[C@@H]2C[C@@H]3c4cccc5[nH]cc(c45)C[C@H]3N(C)C2)CCCCNC(=O)[C@H](Cc2ccc(O)cc2)NC1=O', 10.22),
  ('CC(=O)N(CCCNC[C@@H]1C[C@@H]2c3cccc4[nH]cc(c34)C[C@H]2N(C)C1)[C@@H]1CCCCNC(=O)[C@H](Cc2ccc(F)cc2)NC(=O)[C@H]([C@@H](C)O)NC(=O)[C@H](CCCCN)NC(=O)[C@@H](Cc2c[nH]c3ccccc23)NC(=O)[C@H](Cc2ccccc2)NC(=O)[C@H](Cc2ccccc2)NC(=O)[C@H](CCCNC(=N)N)NC1=O', 9.46),
  ('C[C@@H](O)[C@@H]1NC(=O)[C@H](CCCCN)NC(=O)[C@@H](Cc2c[nH]c3ccccc23)NC(=O)[C@H](Cc2ccccc2)NC(=O)[C@H](Cc2ccccc2)NC(=O)[C@H](CCCNC(=N)N)NC(=O)[C@H](NCCCCC[C@@H]2C[C@@H]3c4cccc5[nH]cc(c45)C[C@H]3N(C)C2)CCCCNC(=O)[C@H](Cc2ccc(F)cc2)NC1=O', 9.14),
  ('C[C@@H](O)[C@@H]1NC(=O)[C@H](CCCCN)NC(=O)[C@@H](Cc2c[nH]c3ccccc23)NC(=O)[C@H](Cc2ccncc2)NC(=O)[C@H](Cc2ccccc2)NC(=O)[C@H](CCCNC(=N)N)NC(=O)[C@H](NC(=O)CSC[C@@H]2C[C@@H]3c4cccc5[nH]cc(c45)C[C@H]3N(C)C2)CCCCNC(=O)[C@H](Cc2ccc(O)cc2)NC1=O [Compound 25] (X2-[dK]RF[4Pal][dW]KTY; lactam 1-C)', 10.30),
  ('C[C@@H](O)[C@@H]1NC(=O)[C@H](CCCCN)NC(=O)[C@@H](Cc2c[nH]c3ccccc23)NC(=O)[C@H](Cc2ccccc2)NC(=O)[C@H](Cc2ccccc2)NC(=O)[C@H](CCCNC(=N)N)NC(=O)[C@H](NCCSC[C@@H]2C[C@@H]3c4cccc5[nH]cc(c45)C[C@H]3N(C)C2)CCCCNC(=O)[C@H](Cc2cccc(F)c2)NC1=O', 9.82),
  ('C[C@@H](O)[C@@H]1NC(=O)[C@H](CCCCN)NC(=O)[C@@H](Cc2c[nH]c3ccccc23)NC(=O)[C@H](Cc2ccccc2)NC(=O)[C@H](Cc2ccccc2)NC(=O)[C@H](CCCNC(=N)N)NC(=O)[C@@H](NC[C@H](Cc2ccc(O)cc2)NC(=O)CSC[C@@H]2C[C@@H]3c4cccc5[nH]cc(c45)C[C@H]3N(C)C2)CCCCNC(=O)[C@H](Cc2ccccc2)NC1=O', 9.29),
  ('C[C@@H](O)[C@@H]1NC(=O)[C@H](CCCCN)NC(=O)[C@@H](Cc2c[nH]c3ccccc23)NC(=O)[C@H](Cc2ccccc2)NC(=O)[C@H](Cc2ccccc2)NC(=O)[C@H](CCCNC(=N)N)NC(=O)[C@H](N(CCSC[C@@H]2C[C@@H]3c4cccc5[nH]cc(c45)C[C@H]3N(C)C2)CCSC[C@@H]2C[C@@H]3c4cccc5[nH]cc(c45)C[C@H]3N(C)C2)CCCCNC(=O)[C@H](Cc2ccc(F)cc2)NC1=O [Compound 39] (RFF[dW]KT[Phe(4-F)]; linker N-C via X1)', 8.43),
  ('C[C@@H](O)[C@@H]1NC(=O)[C@H](CCCCN)NC(=O)[C@@H](Cc2c[nH]c3ccccc23)NC(=O)[C@H](Cc2ccccc2)NC(=O)[C@H](Cc2ccccc2)NC(=O)[C@H](CCCNC(=N)N)NC(=O)[C@H](NCC[S+]([O-])C[C@@H]2C[C@@H]3c4cccc5[nH]cc(c45)C[C@H]3N(C)C2)CCCCNC(=O)[C@H](Cc2ccc(F)cc2)NC1=O (some centres unmarked)', 10.30),
  ('C[C@@H](O)[C@@H]1NC(=O)[C@H](CCCCN)NC(=O)[C@@H](Cc2c[nH]c3ccccc23)NC(=O)[C@H](Cc2ccccc2)NC(=O)[C@H](Cc2ccccc2)NC(=O)[C@H](CCCNC(=N)N)NC(=O)[C@H](NC[C@H](Cc2ccc(O)cc2)NC(=O)CSC[C@@H]2C[C@@H]3c4cccc5[nH]cc(c45)C[C@H]3N(C)C2)CCCNC(=O)[C@H](Cc2ccccc2)NC1=O', 9.40),
  ('C[C@@H](O)[C@@H]1NC(=O)[C@H](CCCCN)NC(=O)[C@@H](Cc2c[nH]c3ccccc23)NC(=O)[C@H](Cc2ccccc2)NC(=O)[C@H](Cc2ccccc2)NC(=O)[C@H](CCCNC(=N)N)NC(=O)[C@H](NCCCC[C@@H]2C[C@@H]3c4cccc5[nH]cc(c45)C[C@H]3N(C)C2)CCCCNC(=O)[C@H](Cc2ccc(F)cc2)NC1=O', 9.10),
  ('C[C@@H](O)[C@@H]1NC(=O)[C@H](CCCCN)NC(=O)[C@@H](Cc2c[nH]c3ccccc23)NC(=O)[C@H](Cc2ccccc2)NC(=O)[C@H](Cc2ccccc2)NC(=O)[C@H](CCCNC(=N)N)NC(=O)[C@H](NCCSC[C@@H]2C[C@@H]3c4cccc5[nH]cc(c45)C[C@H]3N(C)C2)CCCCNC(=O)[C@H](Cc2ccccc2F)NC1=O', 9.27);
